Test system: barnyardgrass (Echinochloa crus-galli)
Test: Test C greenhouse herbicide test, pre- and postemergence
Type: in vivo
Conditions: Postemergence, 31 g ai/ha; 0 to 100 scale (0 no effect, 100 complete control)
parameter measured: Barnyardgrass plant response rating

mol smiles: Cc1nn(C)c(=O)c(-c2c(C)sc3c(C)cc(Cl)cc23)c1O
system: barnyardgrass (Echinochloa crus-galli)
parameter measured: Barnyardgrass plant response rating
experimental result: 20
//
mol smiles: COC(=O)Oc1cnn(C)c(=O)c1-c1c(C)sc2ccccc12
system: barnyardgrass (Echinochloa crus-galli)
parameter measured: Barnyardgrass plant response rating
experimental result: 0
//
mol smiles: COC(=O)Oc1c(C)nn(C)c(=O)c1-c1c(C)sc2ccc(C)cc12
system: barnyardgrass (Echinochloa crus-galli)
parameter measured: Barnyardgrass plant response rating
experimental result: 25
//
mol smiles: Cc1cc(C)c2ccccc2c1-c1c(O)c(C)nn(C)c1=O
system: barnyardgrass (Echinochloa crus-galli)
parameter measured: Barnyardgrass plant response rating
experimental result: 35
//
mol smiles: Cc1ccc2ccccc2c1-c1c(OC(=O)OC(C)C)c(C)nn(C)c1=O
system: barnyardgrass (Echinochloa crus-galli)
parameter measured: Barnyardgrass plant response rating
experimental result: 35
//
mol smiles: CCc1sc2c(C)cc(C)cc2c1-c1c(O)c(C)nn(C)c1=O
system: barnyardgrass (Echinochloa crus-galli)
parameter measured: Barnyardgrass plant response rating
experimental result: 90
//
mol smiles: Cc1ccc2ccccc2c1-c1c(O)c(Br)nn(C)c1=O
system: barnyardgrass (Echinochloa crus-galli)
parameter measured: Barnyardgrass plant response rating
experimental result: 40
//
mol smiles: Cc1nn(C)c(=O)c(-c2ccc(Br)c3ccccc23)c1O
system: barnyardgrass (Echinochloa crus-galli)
parameter measured: Barnyardgrass plant response rating
experimental result: 25
//
mol smiles: Cc1ccc2sc(C)c(-c3c(OC(=O)C(C)(C)C)c(C)nn(C)c3=O)c2c1
system: barnyardgrass (Echinochloa crus-galli)
parameter measured: Barnyardgrass plant response rating
experimental result: 20

----------
Consider the following compounds and their measured Plant response rating, Kochia readings.
Tested on: kochia (Kochia scoparia)
Assay: Test A greenhouse herbicide test, pre- and postemergence
Format: in vivo
Conditions: Postemergence, 125 g ai/ha; visual rating after approx. 10 d, 0 to 100 scale (0 no effect, 100 complete control)
parameter measured: Plant response rating, Kochia

mol smiles: Cc1ccc2c(c1)c(-c1c(O)c(C)nn(C)c1=O)c(C)n2C
experimental result: 0
//
mol smiles: Cn1nc(Br)c(O)c(-c2cccc3ccccc23)c1=O
experimental result: 90
//
mol smiles: Cc1ccc2ccccc2c1-c1c(O)c(I)nn(C)c1=O
experimental result: 80
//
mol smiles: Cn1ncc(O)c(-c2ccc(F)c3ccccc23)c1=O
experimental result: 70
//
mol smiles: Cc1cc(C)c2ccccc2c1-c1c(O)c(C)nn(C)c1=O
experimental result: 100
//
mol smiles: CCc1ccc2ccccc2c1-c1c(OC(=O)C2CC2)c(C)nn(C)c1=O
experimental result: 30

----------
System: soybean (Glycine max)
Experiment: Test C greenhouse herbicide test, pre- and postemergence
Assay type: in vivo
Conditions: Postemergence, 250 g ai/ha; scale 0 to 100, 0 no effect, 100 complete control; 13 to 15 d

compound: CCCC(=O)Oc1c(C)nn(C)c(=O)c1-c1c(CC)sc2ccc(C)cc12 [Compound 107]
system: soybean (Glycine max)
Plant response rating, Soybean: 10

compound: Cc1sc2ccccc2c1-c1c(O)c(Cl)nn(C)c1=O [Compound 89]
system: soybean (Glycine max)
Plant response rating, Soybean: 0

compound: CCc1ccc2ccccc2c1-c1c(O)c(C)nn(C)c1=O [Compound 32]
system: soybean (Glycine max)
Plant response rating, Soybean: 35

compound: COC(=O)Oc1cnn(C)c(=O)c1-c1c(C)sc2ccccc12 [Compound 97]
system: soybean (Glycine max)
Plant response rating, Soybean: 5

----------
Tested on: bromegrass, downy (downy bromegrass, Bromus tectorum)
Experiment: Test D controlled growth environment herbicide test, pre- and postemergence
Assay type: in vivo
Settings: Preemergence, 125 g ai/ha; scale 0 to 100 (0 no effect, 100 complete control)
Consider the following molecules and their measured Plant response rating, Bromegrass, Downy readings.

molecule: Cc1cc2ccccc2c(-c2c(O)c(C)nn(C)c2=O)c1C [Compound 34]
Plant response rating, Bromegrass, Downy: 50
--
molecule: Cc1nn(C)c(=O)c(-c2ccc(F)c3ccccc23)c1O [Compound 41]
Plant response rating, Bromegrass, Downy: 70
--
molecule: Cc1nn(C)c(=O)c(-c2cccc3ccc(Br)cc23)c1O [Compound 126]
Plant response rating, Bromegrass, Downy: 20
--
molecule: CC(=O)Oc1c(C)nn(C)c(=O)c1-c1c(C)sc2ccc(Cl)cc12 [Compound 108]
Plant response rating, Bromegrass, Downy: 70

----------
Tested on: chickweed (common chickweed, Stellaria media)
Test: Test C greenhouse herbicide test, postemergence
Type: in vivo
Conditions: Postemergence, 125 g ai/ha; scale 0 to 100, 0 is no effect, 100 is complete control
Consider the following molecules and their measured Plant response rating, Chickweed readings.
parameter measured: Plant response rating, Chickweed

mol smiles: CC(=O)Oc1c(C)nn(C)c(=O)c1-c1c(C)cc(C)c2ccccc12
parameter measured: Plant response rating, Chickweed
experimental result: 90
//
mol smiles: COC(=O)Oc1cnn(C)c(=O)c1-c1c(C)sc2ccccc12
parameter measured: Plant response rating, Chickweed
experimental result: 15
//
mol smiles: Cc1nn(C)c(=O)c(-c2ccc(Br)c3ccccc23)c1O
parameter measured: Plant response rating, Chickweed
experimental result: 95
//
mol smiles: Cc1ccc2sc(Br)c(-c3c(O)c(C)nn(C)c3=O)c2c1
parameter measured: Plant response rating, Chickweed
experimental result: 90
//
mol smiles: Cc1nn(C)c(=O)c(-c2cccc3ccccc23)c1O
parameter measured: Plant response rating, Chickweed
experimental result: 85
//
mol smiles: Cc1nn(C)c(=O)c(-c2ccc(F)c3ccccc23)c1O
parameter measured: Plant response rating, Chickweed
experimental result: 90
//
mol smiles: CCc1ccc2ccccc2c1-c1c(O)c(C)nn(C)c1=O
parameter measured: Plant response rating, Chickweed
experimental result: 100
//
mol smiles: Cc1nn(C)c(=O)c(-c2c(C)sc3ccc(C(F)(F)F)cc23)c1O
parameter measured: Plant response rating, Chickweed
experimental result: 90
//
mol smiles: CCc1sc2c(C)cc(C)cc2c1-c1c(O)c(C)nn(C)c1=O
parameter measured: Plant response rating, Chickweed
experimental result: 95

----------
System: blackgrass (Alopecurus myosuroides)
Experiment: Test D controlled growth environment herbicide test, pre- and postemergence
Assay type: in vivo
Settings: Postemergence, 125 g ai/ha; visual rating on scale 0 (no effect) to 100 (complete control), 14 to 21 d
Description: […]
parameter measured: Plant response rating, Blackgrass

mol smiles: Cc1cc2ccccc2c(-c2c(O)c(C)nn(C)c2=O)c1C
parameter measured: Plant response rating, Blackgrass
experimental result: 70

mol smiles: Cc1nn(C)c(=O)c(-c2ccc(F)c3ccccc23)c1O
parameter measured: Plant response rating, Blackgrass
experimental result: 70

mol smiles: CCc1sc2ccc(C)cc2c1-c1c(O)c(C)nn(C)c1=O
parameter measured: Plant response rating, Blackgrass
experimental result: 35

mol smiles: Cc1ccc2sc(C)c(-c3c(OC(=O)OC(C)C)c(C)nn(C)c3=O)c2c1
parameter measured: Plant response rating, Blackgrass
experimental result: 75

mol smiles: CCCC(=O)Oc1c(C)nn(C)c(=O)c1-c1c(C)sc2ccc(C)cc12
parameter measured: Plant response rating, Blackgrass
experimental result: 65

mol smiles: Cc1cc(C)c2ccccc2c1-c1c(O)c(C)nn(C)c1=O
parameter measured: Plant response rating, Blackgrass
experimental result: 85

----------
Test system: field bindweed (Convolvulus arvensis)
Test: Test E greenhouse herbicide test, pre- and postemergence
Assay type: in vivo
Details: 125 g ai/ha, Postemergence; scale 0 to 100 (0 no effect, 100 complete control)
Consider the following compounds and their measured Plant response rating, Field Bindweed readings.
parameter measured: Plant response rating, Field Bindweed

mol smiles: CC(=O)Oc1c(C)nn(C)c(=O)c1-c1c(C)cc(C)c2ccccc12
parameter measured: Plant response rating, Field Bindweed
experimental result: 80

mol smiles: CCCC(=O)Oc1c(C)nn(C)c(=O)c1-c1c(C)sc2ccc(C)cc12
parameter measured: Plant response rating, Field Bindweed
experimental result: 95

mol smiles: Cc1ccc2sc(Br)c(-c3c(O)c(C)nn(C)c3=O)c2c1
parameter measured: Plant response rating, Field Bindweed
experimental result: 95

mol smiles: CCc1sc2c(C)cc(C)cc2c1-c1c(O)c(C)nn(C)c1=O
parameter measured: Plant response rating, Field Bindweed
experimental result: 98

mol smiles: Cc1ccc2sc(C)c(-c3c(OC(=O)OC(C)C)c(C)nn(C)c3=O)c2c1
parameter measured: Plant response rating, Field Bindweed
experimental result: 80

mol smiles: Cn1nc(Br)c(O)c(-c2cccc3ccccc23)c1=O
parameter measured: Plant response rating, Field Bindweed
experimental result: 90

mol smiles: Cc1nn(C)c(=O)c(-c2cccc3ccc(Br)cc23)c1O
parameter measured: Plant response rating, Field Bindweed
experimental result: 95

----------
System: kochia (Kochia scoparia)
Assay: Test E greenhouse herbicide test, pre- and postemergence
Assay type: in vivo
Conditions: 250 g ai/ha, Postemergence; scale 0 to 100 (0 no effect, 100 complete control)
Consider the following compounds and their measured Plant response rating, Kochia readings.

mol smiles: Cc1cc2ccccc2c(-c2c(O)c(C)nn(C)c2=O)c1C
Plant response rating, Kochia: 85
--
mol smiles: Cc1nn(C)c(=O)c(-c2ccc(F)c3ccccc23)c1O
Plant response rating, Kochia: 95
--
mol smiles: Cn1nc(Br)c(O)c(-c2cccc3ccccc23)c1=O
Plant response rating, Kochia: 90
--
mol smiles: Cc1ccc2sc(Br)c(-c3c(O)c(C)nn(C)c3=O)c2c1
Plant response rating, Kochia: 98
--
mol smiles: CCc1sc2ccc(C)cc2c1-c1c(O)c(C)nn(C)c1=O
Plant response rating, Kochia: 85

Reference source for all entries: patent US10597388B2
